Provenance of the data: PubChem BioAssay AID296

tested on: MX-1 breast xenograft, nude mice, tumor weight T/C; test: NCI In Vivo Anticancer Drug Screen. Data for tumor model Human Mammary Carcinoma MX-1 Xenograft (intrarenal inoculation) in NU/NU Swiss (nude) mice; settings: endpoint: mean tumor weight change; dose: 100.0 mg/kg/injection; schedule: Q04DX003 (sc); vehicle: saline with Tween-80; higher = larger tumour
Records with an inconclusive call do not appear.
quantityMeasured: T/C

response.value for CN(N=O)C(N)=O (field: T/C) = -68 % of control

response.value for CN=C(N)N/N=C(\c1ccccc1)c1ccc(Br)cc1 (field: T/C) = 78 % of control

response.value for CCN1/C(=C/C=C/C=C\C=C\c2sc3ccc4ccccc4c3[n+]2CC)Sc2ccc3ccccc3c21 (field: T/C) = 104 % of control

response.value for Nc1nnc[se]1 (field: T/C) = 54 % of control

response.value for COC1=C(OC)C(=O)C(Sc2ccc3ccccc3c2)=CC1=O (field: T/C) = 97 % of control

response.value for COc1cc(OC)c(NC(=O)ON2C(=O)c3ccccc3C2=O)cc1Cl (field: T/C) = 103 % of control

response.value for COC(=O)Nc1nc2ccc(C3(c4ccc(F)cc4)OCCO3)cc2[nH]1 (field: T/C) = 79 % of control

response.value for C1OCN2CSCC12 (stereo unspecified) (field: T/C) = 94 % of control

response.value for Nc1nc2ccc(NCc3ccc(C(=O)NC(CCC(=O)O)C(=O)O)cc3)cc2c(=O)[nH]1 (stereo unspecified) (field: T/C) = 93 % of control

response.value for C=C1C(=O)OC2CC(C)C3C4OC4C(O)C3(C)C(O)C12 (stereo unspecified) (field: T/C) = 113 % of control

response.value for C/C=C/c1cc2c(c(=O)o1)C(=O)[C@@H](O)[C@H](C)O2 (field: T/C) = 93 % of control

response.value for CCN(CC)CCOC(=O)Cc1cccc2c(=O)cc(-c3ccccc3)oc12 (field: T/C) = 107 % of control

response.value for CN(CCN(C)C(=O)CCOS(C)(=O)=O)C(=O)CCOS(C)(=O)=O (field: T/C) = 1 % of control

response.value for Clc1ccc2nnnn2n1 (field: T/C) = 173 % of control

response.value for C=C(C)C(=NC(C)(C)C)Nc1ccccc1 (field: T/C) = 101 % of control

response.value for CC1c2ccccc2CC(CCN(C)C)c2ccccc21 (stereo unspecified) (field: T/C) = 38 % of control
